# TARGET UNDER TEST: Ras-related C3 botulinum toxin substrate 1 (Homo sapiens)
# EXPERIMENTAL PROTOCOL: compounds altering fluorescent GTP loading on wildtype Rac1 – biochemical, GST-Rac1 beads, flow cytometry, multiplex, primary screen (AID 757)
# MEASUREMENT CONTEXT: at 10 µM, actives lie on both sides, 0 = cold GTP competed, 100 = untreated
Screen size: about 190,000 compounds; about 520 (0.27%) were called active. Another 2% or so got no clear call; they are omitted.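 The calls were made as follows: active = GTP binding activity at least 20 points away from the 100% control level, either lower or higher; inconclusive = compound flagged as likely green fluorescent, judged across all proteins; inactive = the rest.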 The list comes from a sample in which actives are over-represented; it also holds close analogues and randomly drawn compounds.
Write down the outcome that applies. Available outcomes: y for active, n for inactive

Please review the following examples before continuing.
Cn1c(=NC(=O)c2ccc3c(c2)OCCO3)sc2cc(S(C)(=O)=O)ccc21; n
O=C(CC1CCCCC1)NCc1ccc(F)cc1; n
CN(C)/N=C/c1cn(-c2ccccc2)nc1-c1cccnc1; n

Q) Recorded call for `COc1c(F)c(F)c(C(=O)O)c(Nc2ccccc2C)c1F` ?
A) n

----------
# TARGET UNDER TEST: Ras-related C3 botulinum toxin substrate 1 (Homo sapiens)
# EXPERIMENTAL PROTOCOL: compounds altering fluorescent GTP loading on wildtype Rac1 – biochemical, GST-Rac1 beads, flow cytometry, multiplex, primary screen (AID 757)
# MEASUREMENT CONTEXT: at 10 µM, actives lie on both sides, 0 = cold GTP competed, 100 = untreated
Among all 190,000 compounds or so, about 520 (0.27%) were called active. Inconclusive results (about 2%) are left out.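 Rule for the calls: active = GTP binding activity at least 20 points away from the 100% control level, either lower or higher; inconclusive = compound flagged as likely green fluorescent, judged across all proteins; inactive = the rest.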 The list comes from a sample in which actives are over-represented; it also holds close analogues and randomly drawn compounds.
Write down the outcome that applies. Available outcomes: active, inactive

Please review the following examples before continuing.
COc1ccc(C2(CNC(=O)C(c3ccccc3)c3ccccc3)CCOCC2)cc1OC; active
CC(=O)Nc1ccc(S(=O)(=O)NC2(C(F)(F)F)C(=O)NC(C)=C2C#N)cc1 (configuration not stated); inactive
CCOC(=O)CSC1=N/C(=C/c2ccc(-n3cncn3)cc2)C(=O)N1C(C)=O; inactive
O=C(Nc1cccnc1)c1ccc(Cl)c([N+](=O)[O-])c1; inactive
COc1ccc(S(=O)(=O)N2CCOCC2)cc1C(=O)Nc1nc2ccccc2s1; active

Q) Recorded call for O=C1c2oc3ccc(Br)cc3c(=O)c2C(c2cccc(F)c2)N1CCO (configuration not stated) ?
A) active

----------
# TARGET UNDER TEST: Ras-related C3 botulinum toxin substrate 1 (Homo sapiens) (UniProt P63000)
# EXPERIMENTAL PROTOCOL: compounds altering fluorescent GTP loading on wildtype Rac1 – biochemical, GST-Rac1 beads, flow cytometry, multiplex, primary screen (AID 757)
# MEASUREMENT CONTEXT: at 10 µM, actives lie on both sides, 0 = cold GTP competed, 100 = untreated
Hit rate of the full screen: of about 190,000 compounds, about 520 (0.27%) were called active. About 2% were inconclusive and are not listed.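 Rule for the calls: active = GTP binding activity at least 20 points away from the 100% control level, either lower or higher; inconclusive = compound flagged as likely green fluorescent, judged across all proteins; inactive = the rest.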 The entries come from a sample that favours actives as a whole.
Write down the outcome that applies. Available outcomes: active, inactive

O=C(N1CCCCC1)N1CCN(C(=O)N2CCCCC2)CC1; inactive
Oc1ccccc1C=NC1CCCCC1N=Cc1ccccc1O (stereo unspecified); inactive
O=C(CNC1CCCCC1)NCC1(c2ccccc2)CCCC1; inactive

Q) Recorded call for `COc1ccc(S(=O)(=O)N2CCOCC2)cc1NC(=O)CSc1ncnc2ccccc12` ?
A) inactive

Q) Recorded call for CC1CCC(NC(=O)C2c3ccccc3C(=O)N2Cc2ccc3c(c2)OCO3)CC1 (stereo unspecified) ?
A) inactive

Q) Recorded call for `CN1CCN(C(=O)CCc2ncc(C(F)(F)F)cc2Cl)CC1` ?
A) inactive

Q) Recorded call for O=C(O)CC(SCC(=O)Nc1ccc(Br)cc1)C(=O)O (stereo unspecified) ?
A) inactive

Q) Recorded call for `O=C(NCc1ccco1)c1nn2cccnc2c1Cl` ?
A) inactive

Q) Recorded call for CC(Oc1ccc(Br)cc1Br)C(=O)NC1CCCC1 (stereo unspecified) ?
A) inactive

Q) Recorded call for `CCN(CC(=O)NCc1cccs1)C(=O)c1ccccc1F` ?
A) inactive

Q) Recorded call for `COc1cc2c(cc1OC)CC1(CCCCC1)N=C2` ?
A) inactive

Q) Recorded call for `CCC(CC)c1nnc(NC(=O)c2nn(C)c(=O)c3ccccc23)s1` ?
A) inactive

Q) Recorded call for CCOc1ccc(CN2CCN(Cc3ccon3)CC2CCO)cc1 (stereo unspecified) ?
A) inactive
